subject-of-test: Mannose-6-phosphate isomerase (Homo sapiens) (UniProt P34949)
Sequence (P34949 whole entry, looked up): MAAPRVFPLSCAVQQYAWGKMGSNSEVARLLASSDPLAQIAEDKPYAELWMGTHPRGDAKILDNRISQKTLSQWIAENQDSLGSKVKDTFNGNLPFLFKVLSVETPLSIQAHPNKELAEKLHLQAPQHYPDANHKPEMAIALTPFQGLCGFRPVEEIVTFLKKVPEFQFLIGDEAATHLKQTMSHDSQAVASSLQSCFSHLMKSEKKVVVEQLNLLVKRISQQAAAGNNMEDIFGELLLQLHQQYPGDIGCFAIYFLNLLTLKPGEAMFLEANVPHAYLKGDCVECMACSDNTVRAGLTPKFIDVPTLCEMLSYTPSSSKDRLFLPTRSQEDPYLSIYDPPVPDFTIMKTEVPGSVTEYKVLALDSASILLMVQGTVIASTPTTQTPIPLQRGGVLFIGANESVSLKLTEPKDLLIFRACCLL
method-notes: MPI inhibition at elevated mannose 6-phosphate – biochemical, fluorescence intensity, high mannose 6-phosphate, primary screen (AID 1220)
stated-conditions: recombinant PMI enzyme, coupled fluorescence intensity; at 20 µM; hits give high values
The campaign covered roughly 190,000 compounds. About 1,300 (0.68%) were called active. The sample as a whole holds a higher share of actives than the screen did.
quantity: inhibition (%)
# unit: % | format: bare number

[
  {
    "compound": "COCCn1c(=O)c2c(nc3n2CCN3c2ccc(C)cc2)n(C)c1=O",
    "quantity": "inhibition",
    "test-value": 0.4
  },
  {
    "compound": "Cc1nn(Cc2ccccc2)c(C)c1NC(=O)CCCn1nc(C)c([N+](=O)[O-])c1C",
    "quantity": "inhibition",
    "test-value": -2.1
  },
  {
    "compound": "COc1ccc(NC(=S)Nc2ccc3nsnc3c2)cc1",
    "quantity": "inhibition",
    "test-value": 47
  },
  {
    "compound": "Cc1nnc(N/N=C/c2ccc(-c3ccccc3F)o2)n1N",
    "quantity": "inhibition",
    "test-value": 33.4
  },
  {
    "compound": "Cc1nnc(N/N=C/c2ccco2)n1N",
    "quantity": "inhibition",
    "test-value": 56.6
  },
  {
    "compound": "N/C(=N\\OS(=O)(=O)c1ccccc1)c1ccncc1",
    "quantity": "inhibition",
    "test-value": -14.4
  }
]

Enquiry: Mannose-6-phosphate isomerase (Homo sapiens) (UniProt P34949) / inhibition / O=S(=O)(O/N=C1\CCCc2ccccc21)c1ccccc1 : value?
Return: -10.1

Enquiry: Mannose-6-phosphate isomerase (Homo sapiens) (UniProt P34949) / inhibition / CC(C)(C)c1cc2cccnc2n1Cc1cccc(Cl)c1 : value?
Return: 1.9

Enquiry: Mannose-6-phosphate isomerase (Homo sapiens) (UniProt P34949) / inhibition / O=S(=O)(O/N=C1\CCCc2ccccc21)c1ccc(Cl)cc1 : value?
Return: -28.3

Enquiry: Mannose-6-phosphate isomerase (Homo sapiens) (UniProt P34949) / inhibition / Cc1ccc(NCN2C(=O)C3C4C=CC(C4)C3C2=O)cc1 (centres undefined) : value?
Return: 16.9

Enquiry: Mannose-6-phosphate isomerase (Homo sapiens) (UniProt P34949) / inhibition / CC1=C/C(=N\OC(=O)/C=C/c2ccccc2)C(C)=CC1=O : value?
Return: 8.4

Enquiry: Mannose-6-phosphate isomerase (Homo sapiens) (UniProt P34949) / inhibition / Cc1ccc2cc(CCNC(=O)Cc3cccs3)c(=O)[nH]c2c1 : value?
Return: -0.6

Enquiry: Mannose-6-phosphate isomerase (Homo sapiens) (UniProt P34949) / inhibition / O=C1C2C3C=CC(C3)C2C(=O)N1CNc1ccc(O)cc1 (centres undefined) : value?
Return: 58.4

Enquiry: Mannose-6-phosphate isomerase (Homo sapiens) (UniProt P34949) / inhibition / CCOC(=O)c1cnc2c(C#N)c(C)nn2c1-c1ccccc1 : value?
Return: 3.5

Enquiry: Mannose-6-phosphate isomerase (Homo sapiens) (UniProt P34949) / inhibition / N/C(=N\OS(=O)(=O)c1ccccc1)c1ccccn1 : value?
Return: -4.5

----------
Here, each record is paired with measured inhibition data.
subject-of-test: Mannose-6-phosphate isomerase (Homo sapiens) (UniProt P34949)
method-notes: MPI inhibition at elevated mannose 6-phosphate – biochemical, fluorescence intensity, high mannose 6-phosphate, primary screen (AID 1220)
stated-conditions: recombinant PMI enzyme, coupled fluorescence intensity; at 20 µM; hits give high values
The whole screen tested about 190,000 compounds, of which about 1,300 (0.68%) were called active. The entries come from a sample that favours actives as a whole.
# unit: % | format: bare number

[
  {
    "chemical-string": "Cc1ccc(S(=O)(=O)Nc2ccc(O)c3ncccc23)cc1",
    "inhibition [%]": 27.9
  }
]

Enquiry: Give the measured inhibition of O=C(CSc1nnc2ccccn12)Nc1ccc2c(c1)OCO2 .
Return: 13.7

Enquiry: Give the measured inhibition of O=C1c2cccc3cccc(c23)C(=O)N1Cc1ccco1 .
Return: -4.4

Enquiry: Give the measured inhibition of CCc1ccc(S(=O)(=O)Nc2cc(SCC(=O)O)c(O)c3ccccc23)cc1 .
Return: 7.4

Enquiry: Give the measured inhibition of O=C1c2cccc3c(O)ccc(c23)C(=O)N1Cc1ccccc1 .
Return: 7.6

Enquiry: Give the measured inhibition of O=C1c2cccc3c(O)ccc(c23)C(=O)N1Cc1ccco1 .
Return: 64.3
